Where a name gives a salt, the structure may show the parent alone.
endpoint_name: melting point

• CCCNCCc1cccc2[nH]cc(S(=O)(=O)c3ccccc3)c12 (as salt: hydrochloride) = 217 °C
• O=S(=O)(c1ccccc1)c1c[nH]c2c(CCNC3CCCC3)cccc12 (as salt: hydrochloride) = 255 to 256 °C (dec.)
• O=S(=O)(c1ccccc1)c1c[nH]c2ccc(CCNC3CCCC3)cc12 (as salt: hydrochloride) = 252 °C
• CCN(CC)CCc1cccc2c(S(=O)(=O)c3ccccc3)c[nH]c12 (as salt: hydrochloride) = 165 to 166 °C (dec.)
• O=S(=O)(c1ccccc1)c1c[nH]c2cccc(CCN3CCCCC3)c12 (as salt: hydrochloride) = 200 to 205 °C
• CC(C)NCCc1cccc2[nH]cc(S(=O)(=O)c3ccccc3)c12 (as salt: hydrochloride) = 185 to 187 °C
• CN(C)CCc1cccc2c(S(=O)(=O)c3ccccc3)c[nH]c12 (as salt: hydrochloride) = 205 to 208 °C (dec.)
• O=S(=O)(c1ccccc1)c1c[nH]c2c(CCN3CCOCC3)cccc12 (as salt: hydrochloride) = 246 to 248 °C (dec.)
• O=S(=O)(c1ccccc1)c1c[nH]c2ccc(CCN3CCOCC3)cc12 (as salt: hydrochloride) = 250 to 255 °C
